Where these numbers come from: paper PMC12711630

# target system: 5-HT3A receptor (Homo sapiens)
# Sequence (P46098 24-478): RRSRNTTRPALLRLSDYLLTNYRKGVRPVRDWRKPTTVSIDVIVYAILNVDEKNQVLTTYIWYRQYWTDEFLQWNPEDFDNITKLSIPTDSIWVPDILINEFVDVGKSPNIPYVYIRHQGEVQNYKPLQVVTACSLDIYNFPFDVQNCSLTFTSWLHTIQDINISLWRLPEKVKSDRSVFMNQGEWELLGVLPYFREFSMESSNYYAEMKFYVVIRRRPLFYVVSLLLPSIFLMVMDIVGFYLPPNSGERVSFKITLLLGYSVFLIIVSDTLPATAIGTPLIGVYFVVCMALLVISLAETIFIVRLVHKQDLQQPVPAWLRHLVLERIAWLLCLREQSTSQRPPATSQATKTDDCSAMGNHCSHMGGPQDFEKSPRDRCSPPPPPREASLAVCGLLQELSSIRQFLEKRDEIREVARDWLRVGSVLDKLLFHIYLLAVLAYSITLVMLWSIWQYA
# test protocol: FlexStation fluorescent membrane-potential dye assay, transfected HEK 293 cells
# Assay type: cell-based
# condition info: EC50, activation of 5-HT3A receptors, membrane-potential sensitive dye; n=4
quantity name: EC50 (nM)

1) c1cnc2cc3c(cc2n1)[C@@H]1CNC[C@H]3C1 [Varenicline 1, varenicline, reference compound] | 400

====

# test protocol: physchem
# condition info: pKa value
quantity name: pKa

1) O=c1cccc2n1C[C@@H]1CNC[C@H]2C1 [Cytisine 3, cytisine] | 8.07
